system: SK-OV-3; test: NCI 60 cell line screen; type: cell-based; conditions: Homo sapiens; SK-OV-3, Ovarian Cancer; read-out: Percent growth
VALUE_TYPE: activity at 10 µM (%)
A number alone suffices; assume %.

Consider the reported activity at 10 µM for these compounds:
// query Give the measured activity at 10 µM of O=S(=O)(NCCCNc1nccc(-n2cnc3ccccc32)n1)c1ccccc1 [12h] .
// result 105

// query Same question, O=S(=O)(NCCNc1nccc(-n2cnc3ccccc32)n1)c1ccccc1 [12a] this time
// result 101

New cases:
// query Suppose we examine the compound COc1ccc(S(=O)(=O)NCCNc2nccc(-n3cnc4ccccc43)n2)cc1 [12f] ; what activity at 10 µM value has been reported?
// result 97.5
